Molecular target: human B1R receptor (hB1R) (Homo sapiens)
Construct: host or cells: CHO K1 cells
Sequence (P46663 1-353): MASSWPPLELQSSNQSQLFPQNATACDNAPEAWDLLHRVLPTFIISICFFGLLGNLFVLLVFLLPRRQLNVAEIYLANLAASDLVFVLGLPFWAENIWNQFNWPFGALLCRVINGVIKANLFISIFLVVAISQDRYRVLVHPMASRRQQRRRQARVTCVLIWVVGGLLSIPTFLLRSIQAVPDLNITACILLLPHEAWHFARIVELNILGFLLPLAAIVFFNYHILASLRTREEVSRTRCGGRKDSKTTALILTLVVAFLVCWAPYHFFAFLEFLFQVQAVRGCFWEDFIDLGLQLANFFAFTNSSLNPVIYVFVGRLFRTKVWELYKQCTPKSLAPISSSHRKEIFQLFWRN
Test: FLIPR Ca2+ assay on human bradykinin 1 receptor (CHO K1 hB1R cells)
Type: cell-based
Conditions: test substance 10 μM; CHO K1 cells with human B1R gene; agonist Lys-Des-Arg9-bradykinin 0.5 nM; compared to maximum achievable inhibition
ENDPOINT_LABEL: inhibition at 10 µM (%)

COMPOUND	VALUE
Cc1cc(C)c(S(=O)(=O)N(C)CCOCC(=O)N2CCn3cccc3C2c2ccc(Cl)nc2)c(C)c1 (stereo not shown)	101
COc1cc(C)c(S(=O)(=O)N(CCOCC(=O)N2CCn3c(CN(C)C)ccc3C2c2cccs2)Cc2ccccc2)c(C)c1 (stereo not shown)	104
COc1ccc(C2c3cccn3CCN2C(=O)COCCN(C)S(=O)(=O)c2c(C)cc(OC)c(C)c2C)cc1 (stereo not shown)	101
COc1cc(C)c(S(=O)(=O)N(CCOCC(=O)N2CCn3c(CN(C)C)ccc3C2Cc2ccccc2)Cc2ccccc2)c(C)c1C (stereo not shown)	96

====

molecular target: B1R receptor of rats (rB1R) (Rattus norvegicus, UniProt P97583); construct: host or cells: CHO K1 cells; assay: FLIPR Ca2+ assay on rat bradykinin 1 receptor (CHO K1 rB1R cells); assay type: cell-based; settings: test substance 10 μM; CHO K1 cells with B1R gene of rats; agonist Des-Arg9-bradykinin 100 nM; compared to maximum achievable inhibition
Examples of molecules with documented inhibition at 10 µM follow.
ENDPOINT_LABEL: inhibition at 10 µM (%)

MOLECULE	VALUE
Cc1cc(C)c(S(=O)(=O)N(C)CCOCC(=O)N2CCn3c(CN4CCCC4)ccc3C2c2ccccc2)c(C)c1 (stereo not shown)	101
COc1cc(C)c(S(=O)(=O)N(C)CCOCC(=O)N2CCn3cccc3C2c2cccs2)c(C)c1 (stereo not shown)	98
COc1cc(C)c(S(=O)(=O)N(CCOCC(=O)N2CCn3cccc3C2c2cccs2)Cc2ccccc2)c(C)c1 (stereo not shown)	100
COc1cc(C)c(S(=O)(=O)N(CCOCC(=O)N2CCn3cccc3C2c2cccs2)CC(C)C)c(C)c1C (stereo not shown)	98

====

target: human B1R receptor (hB1R) (Homo sapiens); construct: host or cells: CHO K1 cells; experiment: FLIPR Ca2+ assay on human bradykinin 1 receptor (CHO K1 hB1R cells); format: cell-based; conditions: test substance 10 μM; CHO K1 cells with human B1R gene; agonist Lys-Des-Arg9-bradykinin 0.5 nM; compared to maximum achievable inhibition
Response key: 1 (yes) means inhibition at 10 µM >= 60%; 0 (no) means inhibition at 10 µM < 60%.

COMPOUND	GROUP
CCC1c2ccc(C)n2CCN1C(=O)COCCN(C)S(=O)(=O)c1c(C)cc(OC)cc1C (stereo not shown)	1 (yes)
O=C(CC(NS(=O)(=O)c1ccc2ccccc2c1)c1ccccc1)N1CCn2c(CCc3cccnc3)ccc2C1 (stereo not shown)	0 (no)
CCCC1c2cccn2CCN1C(=O)COCCN(C)S(=O)(=O)c1c(C)cc(OC)cc1C (stereo not shown)	1 (yes)
COc1cc(C)c(S(=O)(=O)N(C)CCOCC(=O)N2CCn3cc(Cc4ccncc4)nc3C2)c(C)c1	1 (yes)
COc1cc(C)c(S(=O)(=O)N(CCOCC(=O)N2CCn3cccc3C2c2ccc(C(C)(C)C)cc2)Cc2ccccc2)c(C)c1 (stereo not shown)	0 (no)
COc1cc(C)c(S(=O)(=O)N(CCOCC(=O)N2CCn3c(CN4CCOCC4)ccc3C2c2ccccc2)CC(C)C)c(C)c1C (stereo not shown)	1 (yes)
COc1cccc(C2c3cccn3CCN2C(=O)COCCN(CC(C)C)S(=O)(=O)c2c(C)cc(OC)c(C)c2C)c1 (stereo not shown)	0 (no)

====

inhibition at 10 µM values, listed per item
Target: B1R receptor of rats (rB1R) (Rattus norvegicus, UniProt P97583)
Construct: host or cells: CHO K1 cells
Sequence (P97583 1-337): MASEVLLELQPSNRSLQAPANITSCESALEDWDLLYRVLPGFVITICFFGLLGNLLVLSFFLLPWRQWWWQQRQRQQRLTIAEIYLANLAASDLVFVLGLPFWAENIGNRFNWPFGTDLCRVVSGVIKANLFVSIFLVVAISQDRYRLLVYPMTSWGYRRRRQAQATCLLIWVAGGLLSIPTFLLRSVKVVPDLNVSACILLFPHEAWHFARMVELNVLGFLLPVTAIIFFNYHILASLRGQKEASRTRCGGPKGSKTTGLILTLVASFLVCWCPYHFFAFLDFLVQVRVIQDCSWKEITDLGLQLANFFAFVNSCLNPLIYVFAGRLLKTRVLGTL
Experiment: FLIPR Ca2+ assay on rat bradykinin 1 receptor (CHO K1 rB1R cells)
Format: cell-based
Conditions: test substance 10 μM; CHO K1 cells with B1R gene of rats; agonist Des-Arg9-bradykinin 100 nM; compared to maximum achievable inhibition

COMPOUND	inhibition at 10 µM (%)
COc1cc(C)c(S(=O)(=O)N(C)CCOCC(=O)N2CCn3cc(-c4ccncc4)nc3C2)c(C)c1 [Example 175]	102
COc1cc(C)c(S(=O)(=O)N(C)CCOCC(=O)N2CCn3c(CN(C)C)ccc3C2c2cccs2)c(C)c1 (stereo not shown) [Example 17]	102
COc1cc(C)c(S(=O)(=O)N(CCOCC(=O)N2CCn3ccnc3C2)Cc2ccccc2)c(C)c1C [Example 43]	73
O=C(CC(NS(=O)(=O)c1ccc2ccccc2c1)c1ccccc1)N1CCn2c(ccc2-c2ccncc2)C1 (stereo not shown) [Example 168]	57
COc1cc(C)c(S(=O)(=O)N(CCOCC(=O)N2CCn3cccc3C2c2ccccc2)CC(C)C)c(C)c1C (stereo not shown) [Example 23]	97
COc1cc(C)c(S(=O)(=O)N(CCOCC(=O)N2CCn3c(CN(C)C)ccc3C2CCc2ccccc2)CC(C)C)c(C)c1C (stereo not shown) [Example 96]	101
COc1cc(C)c(S(=O)(=O)N(C)CCOCC(=O)N2CCn3c(CN(C)C)ccc3C2Cc2ccccc2)c(C)c1C (stereo not shown) [Example 151]	103

====

Biological target: B1R receptor of rats (rB1R) (Rattus norvegicus, UniProt P97583)
Construct: host or cells: CHO K1 cells
Sequence (P97583 1-337): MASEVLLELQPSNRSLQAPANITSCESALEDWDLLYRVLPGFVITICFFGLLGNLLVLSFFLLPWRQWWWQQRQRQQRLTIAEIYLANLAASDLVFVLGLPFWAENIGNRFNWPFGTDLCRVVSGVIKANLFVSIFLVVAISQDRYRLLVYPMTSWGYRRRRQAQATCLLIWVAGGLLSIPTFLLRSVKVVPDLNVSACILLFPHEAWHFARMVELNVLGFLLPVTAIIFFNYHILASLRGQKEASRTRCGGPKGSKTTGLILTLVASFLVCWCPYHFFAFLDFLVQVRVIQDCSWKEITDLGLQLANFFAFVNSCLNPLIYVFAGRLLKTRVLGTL
Experiment: FLIPR Ca2+ assay on rat bradykinin 1 receptor (CHO K1 rB1R cells)
Format: cell-based
Details: test substance 10 μM; CHO K1 cells with B1R gene of rats; agonist Des-Arg9-bradykinin 100 nM; compared to maximum achievable inhibition
ENDPOINT_LABEL: inhibition at 10 µM (%)

COMPOUND	ENDPOINT_LABEL	VALUE
COc1cc(C)c(S(=O)(=O)N(C)CCOCC(=O)N2CCn3cccc3C2c2ccc(C(C)(C)C)cc2)c(C)c1 (stereo not shown)	inhibition at 10 µM	99
COc1cc(C)c(S(=O)(=O)N(CCOCC(=O)N2CCn3cccc3C2C(C)(C)C)Cc2ccccc2)c(C)c1 (stereo not shown)	inhibition at 10 µM	98
COc1cc(C)c(S(=O)(=O)N(CCOCC(=O)N2CCn3c(CN4CCCC4)ccc3C2c2ccccc2)Cc2ccccc2)c(C)c1 (stereo not shown)	inhibition at 10 µM	102
COc1c(C)cc(S(=O)(=O)N(C)CCOCC(=O)N2CCn3cccc3C2c2ccc(Cl)nc2)c(C)c1C (stereo not shown)	inhibition at 10 µM	76
Cc1cc(C)c(S(=O)(=O)N(C)CCOCC(=O)N2CCn3cccc3C2c2ccc(F)c(F)c2)c(C)c1 (stereo not shown)	inhibition at 10 µM	95
COc1cc(C)c(S(=O)(=O)N(C)CCOCC(=O)N2CCn3cccc3C2C(C)C)c(C)c1C (stereo not shown)	inhibition at 10 µM	103
Cc1cc(C)c(S(=O)(=O)N(C)CCOCC(=O)N2CCn3c(CN4CCOCC4)ccc3C2c2ccccc2)c(C)c1 (stereo not shown)	inhibition at 10 µM	101
COc1cc(C)c(S(=O)(=O)N(C)CCOCC(=O)N2CCn3c(CCCN4CCN(C)CC4)ccc3C2)c(C)c1	inhibition at 10 µM	100
COc1cc(C)c(S(=O)(=O)N(C)CCOCC(=O)N2CCn3cccc3C2c2ccc(C)c(C)c2)c(C)c1C (stereo not shown)	inhibition at 10 µM	71
Cc1cc(C)c(S(=O)(=O)N(C)CCOCC(=O)N2CCn3c(CN(C)C)ccc3C2Cc2ccccc2)c(C)c1 (stereo not shown)	inhibition at 10 µM	99
COc1cc(C)c(S(=O)(=O)N(C)CCOCC(=O)N2CCn3c(Cc4ccncc4)ccc3C2)c(C)c1	inhibition at 10 µM	99
O=C(CC(NS(=O)(=O)c1ccc2ccccc2c1)c1ccccc1)N1CCn2c(CCc3cccnc3)ccc2C1 (stereo not shown)	inhibition at 10 µM	99
COc1cc(C)c(S(=O)(=O)N(CCOCC(=O)N2CCn3c(CN4CCCCC4)ccc3C2c2ccccc2)Cc2ccccc2)c(C)c1 (stereo not shown)	inhibition at 10 µM	103
CCCCC1c2ccc(CN(C)C)n2CCN1C(=O)COCCN(C)S(=O)(=O)c1c(C)cc(OC)cc1C (stereo not shown)	inhibition at 10 µM	103
COc1cc(C)c(S(=O)(=O)N(C)CCOCC(=O)N2CCn3cccc3C2CCc2ccccc2)c(C)c1 (stereo not shown)	inhibition at 10 µM	102
COc1cc(C)c(S(=O)(=O)N(CCOCC(=O)N2CCn3cccc3C2C(C)C)Cc2ccccc2)c(C)c1 (stereo not shown)	inhibition at 10 µM	101
Cc1cc(C)c(S(=O)(=O)N(C)CCOCC(=O)N2CCn3c(CN(C)C)ccc3C2c2cccs2)c(C)c1 (stereo not shown)	inhibition at 10 µM	104
COc1cc(C)c(S(=O)(=O)N(C)CCOCC(=O)N2CCn3cccc3C2C)c(C)c1 (stereo not shown)	inhibition at 10 µM	99
COc1cc(C)c(S(=O)(=O)N(C)CCOCC(=O)N2CCn3cccc3C2c2ccc(C(F)(F)F)cc2F)c(C)c1 (stereo not shown)	inhibition at 10 µM	100
COc1c(C)cc(S(=O)(=O)N(C)CCOCC(=O)N2CCn3c(CN(C)C)ccc3C2c2cccs2)c(C)c1C (stereo not shown)	inhibition at 10 µM	101
Cc1cc(C)c(S(=O)(=O)N(C)CCOCC(=O)N2CCn3cccc3C2C(C)C)c(C)c1 (stereo not shown)	inhibition at 10 µM	103
COc1c(C)cc(S(=O)(=O)N(C)CCOCC(=O)N2CCn3c(CN4CCOCC4)ccc3C2c2ccccc2)c(C)c1C (stereo not shown)	inhibition at 10 µM	102
